experimental.target: human PI3Kdelta p110 catalytic subunit (Rat-1 pBABEpuro Myr-HA-hp110 delta) (Homo sapiens)
Construct: Myr (myristoylation signal) (N); HA (N)
Sequence (O00329 whole entry): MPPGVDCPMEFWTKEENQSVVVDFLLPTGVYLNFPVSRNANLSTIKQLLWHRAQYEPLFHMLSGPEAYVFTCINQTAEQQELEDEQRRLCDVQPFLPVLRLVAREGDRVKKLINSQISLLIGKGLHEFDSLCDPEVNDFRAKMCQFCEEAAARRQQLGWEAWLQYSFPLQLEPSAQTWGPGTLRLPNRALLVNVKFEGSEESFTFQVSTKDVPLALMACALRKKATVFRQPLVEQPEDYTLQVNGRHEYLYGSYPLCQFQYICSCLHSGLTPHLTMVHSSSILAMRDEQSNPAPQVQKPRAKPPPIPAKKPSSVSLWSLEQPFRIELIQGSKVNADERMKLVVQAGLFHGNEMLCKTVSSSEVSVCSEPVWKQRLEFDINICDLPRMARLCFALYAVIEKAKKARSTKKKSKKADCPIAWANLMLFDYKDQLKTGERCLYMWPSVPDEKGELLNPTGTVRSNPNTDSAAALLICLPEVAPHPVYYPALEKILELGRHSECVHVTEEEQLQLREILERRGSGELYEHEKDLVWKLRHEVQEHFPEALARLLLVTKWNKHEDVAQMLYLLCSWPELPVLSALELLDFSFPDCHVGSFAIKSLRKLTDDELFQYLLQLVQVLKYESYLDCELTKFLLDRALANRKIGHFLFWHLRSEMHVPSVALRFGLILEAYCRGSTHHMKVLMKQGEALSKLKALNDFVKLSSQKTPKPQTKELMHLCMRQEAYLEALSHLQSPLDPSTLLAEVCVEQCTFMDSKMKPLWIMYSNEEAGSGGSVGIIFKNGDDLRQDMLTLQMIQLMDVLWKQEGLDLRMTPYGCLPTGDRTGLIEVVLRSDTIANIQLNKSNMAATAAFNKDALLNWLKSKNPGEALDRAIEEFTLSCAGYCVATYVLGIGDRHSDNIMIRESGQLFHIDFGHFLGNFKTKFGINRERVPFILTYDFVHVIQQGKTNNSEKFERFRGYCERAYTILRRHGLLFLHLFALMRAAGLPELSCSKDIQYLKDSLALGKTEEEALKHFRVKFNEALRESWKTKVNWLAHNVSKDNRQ
Sequence (Q63787 whole entry partner): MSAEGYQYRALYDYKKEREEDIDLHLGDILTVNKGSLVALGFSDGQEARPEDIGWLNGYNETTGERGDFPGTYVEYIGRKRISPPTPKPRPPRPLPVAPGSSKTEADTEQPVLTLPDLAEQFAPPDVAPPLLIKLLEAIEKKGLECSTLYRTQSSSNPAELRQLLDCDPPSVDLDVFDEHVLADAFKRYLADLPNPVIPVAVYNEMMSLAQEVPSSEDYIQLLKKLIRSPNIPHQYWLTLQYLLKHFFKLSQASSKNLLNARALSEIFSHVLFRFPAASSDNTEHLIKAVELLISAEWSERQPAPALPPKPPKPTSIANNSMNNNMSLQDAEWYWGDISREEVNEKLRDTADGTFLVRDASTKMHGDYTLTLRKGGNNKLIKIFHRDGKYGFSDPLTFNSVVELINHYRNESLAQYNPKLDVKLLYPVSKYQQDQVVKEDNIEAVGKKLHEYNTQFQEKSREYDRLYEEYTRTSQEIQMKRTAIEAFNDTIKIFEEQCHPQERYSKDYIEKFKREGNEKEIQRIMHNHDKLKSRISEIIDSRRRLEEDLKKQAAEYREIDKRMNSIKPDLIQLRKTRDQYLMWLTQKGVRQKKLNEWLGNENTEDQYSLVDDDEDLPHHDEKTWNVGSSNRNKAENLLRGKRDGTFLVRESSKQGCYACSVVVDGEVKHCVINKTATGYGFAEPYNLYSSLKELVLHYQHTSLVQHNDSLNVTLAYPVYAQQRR
procedure.details: Cellular assay PI3Kdelta (p-Akt(S473) SureFire, Rat-1_PI3Kdelta cells)
recorded.conditions: 1 h compound treatment, read-out: Rat1-PI3Kd/ IC50
pIC50: −log10 of the molar value.
test.readout: pIC50

compound="CC1(CO)COC(=O)N1c1cc(-c2cnc(N)nc2C(F)(F)F)nc(N2CCOCC2)n1 (single isomer, unassigned) [Example 3B]" test_readout=pIC50 quantitative_result=6.76

a. Nc1ncc(-c2cc(N3C(=O)OC[C@@H]3CO)nc(N3CCOCC3)n2)c(C(F)(F)F)n1 [Example 7]
b. Nc1ncc(-c2cc(N3C[C@H](CO)OC3=O)nc(N3CCOCC3)n2)c(C(F)(F)F)n1 [Example 20]
c. C[C@H]1[C@@H](CCO)OC(=O)N1c1cc(-c2cnc(N)nc2C(F)(F)F)nc(N2CCOCC2)n1 [Example 23]
Request: Put the items in order so that reported pIC50 rises from first to last. Write the labels out in the order the request specifies.
Response: b, a, c
